meta.source: ChEMBL document CHEMBL5137046

Biological target: cGMP-dependent 3',5'-cyclic phosphodiesterase (Homo sapiens)
Sequence (O00408 whole entry): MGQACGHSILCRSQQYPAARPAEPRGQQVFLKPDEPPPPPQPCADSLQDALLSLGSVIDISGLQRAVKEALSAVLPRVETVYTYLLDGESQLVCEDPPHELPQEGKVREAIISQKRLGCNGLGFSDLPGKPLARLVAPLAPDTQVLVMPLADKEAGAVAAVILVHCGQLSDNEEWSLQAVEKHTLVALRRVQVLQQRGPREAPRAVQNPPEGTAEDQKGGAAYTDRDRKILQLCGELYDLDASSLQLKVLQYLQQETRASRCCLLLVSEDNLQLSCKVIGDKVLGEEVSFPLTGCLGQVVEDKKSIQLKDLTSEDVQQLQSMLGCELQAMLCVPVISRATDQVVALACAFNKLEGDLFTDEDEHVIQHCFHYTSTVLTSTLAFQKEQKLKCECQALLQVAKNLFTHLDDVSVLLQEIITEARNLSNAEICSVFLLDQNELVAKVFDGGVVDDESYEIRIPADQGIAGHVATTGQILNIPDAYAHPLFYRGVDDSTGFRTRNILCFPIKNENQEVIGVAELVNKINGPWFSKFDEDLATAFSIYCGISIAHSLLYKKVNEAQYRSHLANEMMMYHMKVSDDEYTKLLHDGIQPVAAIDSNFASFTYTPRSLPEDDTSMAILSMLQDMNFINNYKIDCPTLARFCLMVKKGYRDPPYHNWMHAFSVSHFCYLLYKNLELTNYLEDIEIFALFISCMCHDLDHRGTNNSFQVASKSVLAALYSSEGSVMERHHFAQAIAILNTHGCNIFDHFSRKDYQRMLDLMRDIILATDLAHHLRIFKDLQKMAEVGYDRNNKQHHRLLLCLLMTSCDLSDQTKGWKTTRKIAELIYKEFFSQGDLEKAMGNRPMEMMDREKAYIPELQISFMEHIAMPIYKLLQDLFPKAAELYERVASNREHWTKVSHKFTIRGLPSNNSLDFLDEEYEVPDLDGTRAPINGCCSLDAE

compound | IC50
COc1cc2c(cc1OCCN1CCCCC1)C(=O)C(Cc1cccnc1)C2 (stereo unspecified) | > 50 µM

###

Molecular target: cGMP-specific 3',5'-cyclic phosphodiesterase (Homo sapiens, UniProt O76074)
Test: Inhibition of PDE5A (unknown origin)
endpoint_label: IC50

molecule | endpoint_label | result
COc1cc2c(cc1OCCN1CCCCC1)C(=O)C(Cc1cccnc1)C2 (stereo unspecified) | IC50 | > 50 µM

###

Target: 3',5'-cyclic-AMP phosphodiesterase 4D (Homo sapiens)
Test: Inhibition of PDE4D7 (unknown origin) at 10 uM
inhibition: recorded values
endpoint_label: inhibition

compound | target_or_test_system | endpoint_label | result
COc1cc2c(cc1OCC1CC1)C(=O)C(CC1CCN(Cc3ccccc3)CC1)C2 (stereo unspecified) | 3',5'-cyclic-AMP phosphodiesterase 4D (Homo sapiens) | inhibition | < 10%
COc1cc2c(cc1OCC(C)C)CC(CC1CCN(Cc3ccccc3)CC1)C2=O (stereo unspecified) | 3',5'-cyclic-AMP phosphodiesterase 4D (Homo sapiens) | inhibition | < 10%
COc1cc2c(cc1OCC1CC1)CC(Cc1ccncc1)C2=O (stereo unspecified) | 3',5'-cyclic-AMP phosphodiesterase 4D (Homo sapiens) | inhibition | 31%
COc1cc2c(cc1OCC(C)C)C(=O)C(CC1CCNCC1)C2 (stereo unspecified) | 3',5'-cyclic-AMP phosphodiesterase 4D (Homo sapiens) | inhibition | < 10%
COc1cc2c(cc1OCC1CC1)CC(CC1CCNCC1)C2=O (stereo unspecified) | 3',5'-cyclic-AMP phosphodiesterase 4D (Homo sapiens) | inhibition | < 10%
COc1cc2c(cc1OCC(C)C)C(=O)C(CC1CCN(Cc3ccccc3)CC1)C2 (stereo unspecified) | 3',5'-cyclic-AMP phosphodiesterase 4D (Homo sapiens) | inhibition | < 10%

###

Molecular target: 3',5'-cyclic-AMP phosphodiesterase 4D (Homo sapiens, UniProt Q08499)
Sequence (Q08499 whole entry): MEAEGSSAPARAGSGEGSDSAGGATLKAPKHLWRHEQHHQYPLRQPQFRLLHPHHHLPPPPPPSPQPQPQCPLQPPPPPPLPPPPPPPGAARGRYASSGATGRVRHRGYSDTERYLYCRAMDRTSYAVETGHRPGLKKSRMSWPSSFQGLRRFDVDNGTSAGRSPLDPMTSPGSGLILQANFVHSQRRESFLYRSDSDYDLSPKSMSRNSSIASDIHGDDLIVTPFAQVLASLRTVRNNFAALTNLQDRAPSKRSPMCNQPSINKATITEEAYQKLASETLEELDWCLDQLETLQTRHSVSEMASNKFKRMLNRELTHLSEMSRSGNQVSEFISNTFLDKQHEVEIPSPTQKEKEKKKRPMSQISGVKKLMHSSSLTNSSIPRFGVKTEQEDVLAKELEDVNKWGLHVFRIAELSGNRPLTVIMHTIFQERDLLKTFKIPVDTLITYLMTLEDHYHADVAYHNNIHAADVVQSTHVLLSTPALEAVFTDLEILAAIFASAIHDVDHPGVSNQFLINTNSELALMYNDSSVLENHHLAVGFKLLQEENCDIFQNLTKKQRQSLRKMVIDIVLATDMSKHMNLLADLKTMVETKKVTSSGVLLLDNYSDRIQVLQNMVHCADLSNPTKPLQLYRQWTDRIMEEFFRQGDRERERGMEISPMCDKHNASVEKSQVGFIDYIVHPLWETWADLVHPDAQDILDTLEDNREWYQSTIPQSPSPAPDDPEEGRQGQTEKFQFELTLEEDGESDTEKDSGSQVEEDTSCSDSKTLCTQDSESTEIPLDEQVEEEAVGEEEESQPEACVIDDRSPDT
pIC50: −log10 of the molar value.
endpoint_label: pIC50

molecule | quantitative_result
COc1cc2c(cc1OC1CCCC1)C(=O)C(Cc1ccccn1)C2 (stereo unspecified) | 5.06
COc1cc2c(cc1OC1CCCC1)C(=O)C(Cc1cccnc1)C2 (stereo unspecified) | 4.64
COc1cc2c(cc1OCCN1CCCCC1)C(=O)C(Cc1cccnc1)C2 (stereo unspecified) | 5.73
COc1cc2c(cc1OCC(C)C)CC(Cc1ccncc1)C2=O (stereo unspecified) | 5.38
COc1cc2c(cc1OCC1CC1)C(=O)C(Cc1ccncc1)C2 (stereo unspecified) | 5.20
COc1cc2c(cc1OCCN1CCCCC1)C(=O)C(Cc1ccncc1)C2 (stereo unspecified) | 4.79
COc1cc2c(cc1OC1CCCC1)CC(Cc1ccncc1)C2=O (stereo unspecified) | 5.28
COc1cc2c(cc1OC1CCCC1)C(=O)/C(=C/c1cccnc1)C2 | 5.39
COc1cc2c(cc1OC1CCCC1)C(=O)C(Cc1ccncc1)C2 (stereo unspecified) | 5.47
COc1cc2c(cc1OC)C(=O)C(CC1CCN(Cc3ccccc3)CC1)C2 (stereo unspecified) | 4.44
COc1cc2c(cc1OC1CCCC1)C(=O)/C(=C/c1ccncc1)C2 | 5.51
